src = PubChem BioAssay (Tox21)

Test protocol: qHTS assay to identify small molecule antagonists of the peroxisome proliferator-activated receptor delta (PPARd) signaling pathway - cell viability counter screen (AID 743213); note: nearly all actives have a fitted effect of over 50% in size
Test conditions: PPARd-bla HEK293H viability, CellTiter-Glo luminescence, 17 h; series mostly up to 62 µM
From the text: U.S. Tox21 Program National Center for Advancing Translational Sciences [NCATS] NIH Chemical Genomics Center [NCGC] U.S. Environmental Protection Agency [EPA] National Institutes of Environmental Health Sciences [NIEHS] National Toxicology Program [NTP] U.S. Food and Drug Administration [FDA] […]
Inconclusive results are not listed. Activity calls are given as the source filed them. Calls come from the whole dose curve; as a rule, active = well fitted cell-killing curve with a large enough effect in the repeat runs; inconclusive = weak or mixed curves; inactive = no such curve, though single readings can be large or run the other way.
Assay endpoint: viability change, negative = cytotoxic

Compound: Cn1nnc2c(C(N)=O)ncn2c1=O
viability change, negative = cytotoxic: inactive
//
Compound: C/C(CC(C)C)=N\O
viability change, negative = cytotoxic: inactive
//
Compound: CCCC(=O)Nc1ccc(OCC(O)CNC(C)C)c(C(C)=O)c1 (configuration not stated)
viability change, negative = cytotoxic: inactive
//
Compound: O=C(O)CONC(=O)c1ccccc1
viability change, negative = cytotoxic: inactive

Q: Given the compound CC(Oc1cc(Cl)ccc1Cl)C(=O)O (configuration not stated) , what is its reported viability change, negative = cytotoxic?
Ans: inactive

Q: Given the compound COC(=O)CCCCC(CCSS/C(CCO)=C(\C)N(C=O)Cc1cnc(C)nc1N)SC(C)=O (configuration not stated) , what is its reported viability change, negative = cytotoxic?
Ans: inactive

Q: Given the compound `Cc1c(C(=O)c2c[nH]n(C)c2=O)ccc(S(C)(=O)=O)c1C1=NOCC1` , what is its reported viability change, negative = cytotoxic?
Ans: inactive

Q: Given the compound `CC(=O)OC(C)=O` , what is its reported viability change, negative = cytotoxic?
Ans: inactive

Q: Given the compound CC(=O)O[C@@H]1CC2CCC1(C)C2(C)C (some centres not stated) , what is its reported viability change, negative = cytotoxic?
Ans: inactive

Q: Given the compound `OC[C@H]1O[C@@H](O[C@@H]2[C@@H](CO)O[C@](O)(CO)[C@H]2O)[C@H](O)[C@@H](O)[C@H]1O` , what is its reported viability change, negative = cytotoxic?
Ans: inactive

Q: Given the compound `CC(C)=CCC/C(C)=C/COC=O` , what is its reported viability change, negative = cytotoxic?
Ans: inactive

Q: Given the compound `Cn1c(=O)c2c(ncn2CCO)n(C)c1=O` , what is its reported viability change, negative = cytotoxic?
Ans: inactive

###

Test protocol: qHTS assay for identifying genotoxic compounds that show differential cytotoxicity against isogenic chicken DT40 cell lines with known DNA damage response pathways - Rad54/Ku70 mutant cell line (AID 743015); note: nearly all actives have a fitted effect of over 60% in size
Test conditions: DT40 Rad54/Ku70 mutant viability, CellTiter-Glo, 40 h; series mostly up to 66.8 µM
Inconclusive results are not listed. Activity calls are given as the source filed them. Calls come from the whole dose curve; as a rule, active = well fitted cell-killing curve with a large enough effect in the repeat runs; inconclusive = weak or mixed curves; inactive = no such curve, though single readings can be large or run the other way. Positions of bridges follow the written chain, without caps; N, C: chain ends. Non-standard residues stand in square brackets, D forms with d. Residues, ends and D or L forms follow the SMILES beside them. hArg = N=C(N)NCCCC[C@H](N)C(=O)O; Mpa = O=C(O)CCS
Please state which outcome applies, choosing from label 1 = active, label 0 = inactive

Q: What is the recorded call for this compound in the test? `Cc1ccnc(N)c1`
Ans: label 1

Q: What is the recorded call for this compound in the test? `O=C(Cn1ccnc1[N+](=O)[O-])NCc1ccccc1`
Ans: label 0

Q: What is the recorded call for this compound in the test? `CN(C)CCN(C)CCO`
Ans: label 0

Q: What is the recorded call for this compound in the test? `CC1=C(C(=O)O)N2C(=O)[C@@H](NC(=O)[C@H](N)c3ccccc3)[C@H]2SC1`
Ans: label 0

Q: What is the recorded call for this compound in the test? `CC(=O)Nc1ccc(OC(=O)c2ccccc2OC(C)=O)cc1`
Ans: label 0

Q: What is the recorded call for this compound in the test? `CC(=O)O[C@H]1C[C@@H]2CC[C@@]1(C)C2(C)C`
Ans: label 0

Q: What is the recorded call for this compound in the test? `Cc1cc(C)c(C(=O)O)c(C)c1`
Ans: label 0

Q: What is the recorded call for this compound in the test? `N[C@@H](CSCCCO)C(=O)O`
Ans: label 0

Q: What is the recorded call for this compound in the test? `C=CCSSCCC`
Ans: label 0

Q: What is the recorded call for this compound in the test? `C[C@@H](O)C(=O)O`
Ans: label 0

Q: What is the recorded call for this compound in the test? `O=C(O)CNC(=O)CNC(=O)CNC(=O)CSC(=O)c1ccccc1`
Ans: label 0

Q: What is the recorded call for this compound in the test? `CNCCS(=O)(=O)O`
Ans: label 0

Q: What is the recorded call for this compound in the test? `NCC1(Cc2noc(=O)[nH]2)CCCCC1`
Ans: label 0

Q: What is the recorded call for this compound in the test? CC1CC(=O)CC(C)(C)C1 (stereo unspecified)
Ans: label 0

Q: What is the recorded call for this compound in the test? `O=Cc1ccccc1Cl`
Ans: label 0

Q: What is the recorded call for this compound in the test? `CCCCCCCCCOC(=O)c1ccccc1C(=O)OCCCCCCCCC`
Ans: label 0

Q: What is the recorded call for this compound in the test? `CCCc1ccc(O)cc1`
Ans: label 0

Q: What is the recorded call for this compound in the test? `O=C(O)CONC(=O)c1ccccc1`
Ans: label 0

Q: What is the recorded call for this compound in the test? `CCCCOCCOC(=O)COc1ccc(Cl)cc1Cl`
Ans: label 0

Q: What is the recorded call for this compound in the test? `OC[C@H]1O[C@@H](O[C@@H]2[C@@H](CO)O[C@](O)(CO)[C@H]2O)[C@H](O)[C@@H](O)[C@H]1O`
Ans: label 0

Q: What is the recorded call for this compound in the test? `O=C1CCCCO1`
Ans: label 0

Q: What is the recorded call for this compound in the test? `C=CC/C=C/C`
Ans: label 0

Q: What is the recorded call for this compound in the test? CCOC(CN1CCN(CC(C)C(=O)c2ccccc2)CC1)c1ccccc1 (stereo unspecified)
Ans: label 1

Q: What is the recorded call for this compound in the test? CCCCOCC(C)O (stereo unspecified)
Ans: label 0

Q: What is the recorded call for this compound in the test? CCCCCCC1(C)CCC(=O)O1 (stereo unspecified)
Ans: label 0

Q: What is the recorded call for this compound in the test? CC(=O)OC1CCCCC1C(C)(C)C (stereo unspecified)
Ans: label 0

Q: What is the recorded call for this compound in the test? `CCCCCCCCCCCCCCCCCCOCCO`
Ans: label 0

Q: What is the recorded call for this compound in the test? `C[C@]12CCC(=O)C=C1CC[C@H]1[C@@H]3CC[C@](O)(C(=O)CO)[C@@]3(C)C[C@H](O)[C@@]12F`
Ans: label 1

Q: What is the recorded call for this compound in the test? CCCCC1CCC(O)CC1 (stereo unspecified)
Ans: label 0

Q: What is the recorded call for this compound in the test? CCCCCCCCCCCCCCC(=O)NC(CO)CCCCCCCCCCCCCC (stereo unspecified)
Ans: label 0

Q: What is the recorded call for this compound in the test? `CCCCCc1cccc(=O)o1`
Ans: label 0

Q: What is the recorded call for this compound in the test? NC(=O)[C@@H]1CSSCCC(=O)N[C@@H](CCCCN=C(N)N)C(=O)NCC(=O)N[C@@H](CC(=O)O)C(=O)N[C@@H](Cc2c[nH]c3ccccc23)C(=O)N2CCC[C@H]2C(=O)N1 ([Mpa][hArg]GDWPC-NH2; disulfide 1-7)
Ans: label 0

Q: What is the recorded call for this compound in the test? `CC(C)CO`
Ans: label 0

Q: What is the recorded call for this compound in the test? `C[Si]1(C)O[Si](C)(C)O[Si](C)(C)O[Si](C)(C)O[Si](C)(C)O1`
Ans: label 0

Q: What is the recorded call for this compound in the test? C=C(C)C1CC=C(C)C(=O)C1 (stereo unspecified)
Ans: label 0

Q: What is the recorded call for this compound in the test? `C=CC(=O)CCCCC`
Ans: label 0

Q: What is the recorded call for this compound in the test? `O=C1CCC(=O)N1Cl`
Ans: label 0

Q: What is the recorded call for this compound in the test? CC(C)C1OCCN1CCOC(=O)NCCCCCCNC(=O)OCCN1CCOC1C(C)C (stereo unspecified)
Ans: label 0

Q: What is the recorded call for this compound in the test? `c1ccc2cnccc2c1`
Ans: label 1

Q: What is the recorded call for this compound in the test? `CC(C)c1ccc(C=O)cc1`
Ans: label 0

Q: What is the recorded call for this compound in the test? OC1OCCOC1O (stereo unspecified)
Ans: label 0

Q: What is the recorded call for this compound in the test? `CC(=O)OCC(=O)Nc1cc(C#N)cc(NC(=O)COC(C)=O)c1Cl`
Ans: label 0

Q: What is the recorded call for this compound in the test? `CCC(=O)CC`
Ans: label 0

Q: What is the recorded call for this compound in the test? `O=C1OCCO1`
Ans: label 0

Q: What is the recorded call for this compound in the test? `CCO`
Ans: label 0

Q: What is the recorded call for this compound in the test? `CO[C@@]1(NC(=O)Cc2cccs2)C(=O)N2C(C(=O)O)=C(COC(N)=O)CS[C@@H]21`
Ans: label 0

Q: What is the recorded call for this compound in the test? CCOC(=O)CC1(C)OCC(C)O1 (stereo unspecified)
Ans: label 0

Q: What is the recorded call for this compound in the test? `CCCCCCCCCOC(=O)CCCCC(=O)OCCCCCCC`
Ans: label 0

Q: What is the recorded call for this compound in the test? CCC(C)C(=O)OCCc1ccccc1 (stereo unspecified)
Ans: label 0

Q: What is the recorded call for this compound in the test? `CCC(=O)c1c(O)cc(O)cc1O`
Ans: label 0

Q: What is the recorded call for this compound in the test? `O=C(O)c1cc2ccccc2nc1C(=O)O`
Ans: label 0

Q: What is the recorded call for this compound in the test? `CCC[C@@H]1C[C@@H](C(=O)N[C@@H]([C@H]2O[C@H](SC)[C@H](O)[C@@H](O)[C@H]2O)[C@@H](C)O)N(C)C1`
Ans: label 0

Q: What is the recorded call for this compound in the test? `c1ccc2c(CC3=NCCN3)cccc2c1`
Ans: label 0

Q: What is the recorded call for this compound in the test? `C=CCCCC`
Ans: label 0

Q: What is the recorded call for this compound in the test? `N#Cc1cscn1`
Ans: label 0

Q: What is the recorded call for this compound in the test? `CCO[Si](CC)(OCC)OCC`
Ans: label 0
